# System: ACHN renal
# Procedure Details: NCI-60 one-dose screen, 48 h (100 = growth as untreated, 0 = no growth, -100 = all killed)
# Recorded Conditions: 10 µM unless noted
Compounds without any hit were thinned out: in the full panel of roughly 83,000, 20% have a hit.
Rule: growth under 90% gives Not fulfilled, otherwise Fulfilled.

>  <Molecule>
O=C(c1cccc(N2CCOCC2)n1)c1c[nH]c2ccccc12

>  <Answer Label>
Not fulfilled

$$$$
>  <Molecule>
Cc1nc2sc(C(=O)Nc3cccc4ccccc34)c(N)c2cc1C(=O)c1ccccc1

>  <Answer Label>
Not fulfilled

$$$$
>  <Molecule>
COC12C=C/C(=C(/C(=O)OCc3csc(SC)n3)C(=O)CCCCCCCCC3(OC)C=C/C(=C(/C(=O)OCc4cnc(SC)s4)C(=O)CCCCCCCC1)O3)O2 (stereo not given)

>  <Answer Label>
Not fulfilled

$$$$
>  <Molecule>
CN(C)c1ccc(C(=S)c2ccc(N(C)C)cc2)cc1

>  <Answer Label>
Fulfilled

$$$$

----------
# System: DU-145 prostate
# Procedure Details: NCI-60 one-dose screen, 48 h
# Recorded Conditions: 10 µM unless noted
# Description: Cells are grown in 96 well plates and exposed to the test compound for 48 hours. Compounds are tested at a single concentration, which is 10^-5 M for most compounds. The reported endpoint is percent growth (GI% or GIPRCNT), where numbers from 0 - 100% represent growth inhibition, and numbers from -100% - 0 represent cell death. For example, a value of 40 represents 60% growth inhibition. A value of 0 means no net growth occurred over the course of the experiment. […]
The panel holds about 83,000 compounds, 20% with a hit somewhere; the sample as a whole holds those more often. Active and inactive are the calls of the source. The calls were made as follows: active = growth percent below 10; inactive = the rest.
Classes used: active, inactive

>  <Compound>
COc1cc(C[C@H]2COc3cc(O)cc(O)c3C2=O)ccc1O

>  <Study Target>
DU-145 prostate

>  <Answer Label>
inactive

$$$$
>  <Compound>
Cc1nn(-c2ccc([N+](=O)[O-])cc2)c2ncnc(N/N=C/c3ccccc3O)c12

>  <Study Target>
DU-145 prostate

>  <Answer Label>
inactive

$$$$
>  <Compound>
Cc1cc(=O)n(C(=S)Nc2ccc(Cl)cc2)c2cc(O)ccc12

>  <Study Target>
DU-145 prostate

>  <Answer Label>
inactive

$$$$
>  <Compound>
CCN(CC)C(=O)CC1=C(C)/C(=C/c2[nH]c(-c3ccc[nH]3)cc2OC)N=C1C

>  <Study Target>
DU-145 prostate

>  <Answer Label>
inactive

$$$$
>  <Compound>
O=C(N/N=C/c1ccc(Cl)cc1)c1ccc(NC(=O)c2ccccn2)cc1

>  <Study Target>
DU-145 prostate

>  <Answer Label>
inactive

$$$$
>  <Compound>
CN(C)CCCn1c2c(c3ccncc3c1=O)C(=O)c1ccccc1-2

>  <Study Target>
DU-145 prostate

>  <Answer Label>
active

$$$$
>  <Compound>
Fc1ccc2[nH]cc(-c3nc(-c4c[nH]c5c(Cl)nccc45)cs3)c2c1

>  <Study Target>
DU-145 prostate

>  <Answer Label>
inactive

$$$$
>  <Compound>
O=S(O)c1cc(Cl)cc(Cl)c1OCc1ccccc1

>  <Study Target>
DU-145 prostate

>  <Answer Label>
inactive

$$$$
>  <Compound>
COc1ccc(-c2nc3c(c(-c4ccc(Cl)cc4)nn3-c3ccccc3)c(-c3ccccc3)c2C#N)cc1

>  <Study Target>
DU-145 prostate

>  <Answer Label>
inactive

$$$$
>  <Compound>
COC12C=C/C(=C(/C(=O)OCc3cncnc3)C(=O)CCCCCCCCC3(OC)C=C/C(=C(/C(=O)OCc4cncnc4)C(=O)CCCCCCCC1)O3)O2

>  <Study Target>
DU-145 prostate

>  <Answer Label>
active

$$$$
>  <Compound>
CCCCNC(=O)c1ccc2c(c1)nc(-c1ccccc1)n2C1CCCCC1

>  <Study Target>
DU-145 prostate

>  <Answer Label>
inactive

$$$$
>  <Compound>
Cc1cc2oc(/C=C/c3ccccc3)cc(=O)c2c(C)c1Cl

>  <Study Target>
DU-145 prostate

>  <Answer Label>
inactive

$$$$
>  <Compound>
Cc1c(C(C)(C)O)cn2ncnc(Oc3ccc(NC(=O)Nc4ccc(Cl)c(C(F)(F)F)c4)c(F)c3)c12

>  <Study Target>
DU-145 prostate

>  <Answer Label>
inactive

$$$$
>  <Compound>
O=C1NC(=O)C(c2coc3cc(Br)ccc23)=C1c1c[nH]c2ccccc12

>  <Study Target>
DU-145 prostate

>  <Answer Label>
inactive

$$$$
>  <Compound>
O=S(Nc1ccccc1)c1ccc(Cl)cc1 (centres undefined)

>  <Study Target>
DU-145 prostate

>  <Answer Label>
inactive

$$$$
>  <Compound>
CS(=O)(=O)Nc1cc(-c2ccc3ncnc(Nc4ccc5c(cnn5Cc5ccncc5)c4)c3c2)cnc1Cl

>  <Study Target>
DU-145 prostate

>  <Answer Label>
inactive

$$$$
>  <Compound>
C=CN(C(=O)N1CCN(c2cc3c(cc2F)c(=O)c(C(=O)O)cn3C2CC2)CC1)c1nc(-c2ccc(Cl)cc2)cs1

>  <Study Target>
DU-145 prostate

>  <Answer Label>
inactive

$$$$
>  <Compound>
COc1ccc(/C=C2\c3cc(OC)c(OC)c(OC)c3CC[C@@H]2O)cc1F

>  <Study Target>
DU-145 prostate

>  <Answer Label>
inactive

$$$$
>  <Compound>
Cc1nc2sc(C(=O)Nc3cccc4ccccc34)c(N)c2cc1C(=O)c1ccccc1

>  <Study Target>
DU-145 prostate

>  <Answer Label>
inactive

$$$$
>  <Compound>
CCn1cc(Cc2cc(C(=O)Nc3cc4cc(OC)c(OC)cc4c(C)n3)ccc2Cl)cn1

>  <Study Target>
DU-145 prostate

>  <Answer Label>
inactive

$$$$
>  <Compound>
O=C(Cn1nc(-c2cccc3ccccc23)ccc1=O)NCc1cccc(Cl)c1

>  <Study Target>
DU-145 prostate

>  <Answer Label>
inactive

$$$$
>  <Compound>
COc1ccc(C2[C@@H](Cl)C(=O)N2c2cc(OC)c(OC)c(OC)c2)cc1Cl (some centres undefined)

>  <Study Target>
DU-145 prostate

>  <Answer Label>
active

$$$$
>  <Compound>
Oc1nc(NCc2ccccc2)sc1/C=C1\C=Nc2ncccc21

>  <Study Target>
DU-145 prostate

>  <Answer Label>
inactive

$$$$
>  <Compound>
Cc1ccc(S(=O)(=O)c2nc(-c3ccccc3)oc2SCC(N)=O)cc1

>  <Study Target>
DU-145 prostate

>  <Answer Label>
inactive

$$$$
>  <Compound>
CC(O)CNC(Cc1ccccc1)c1ccc2c(c1)OCO2 (centres undefined)

>  <Study Target>
DU-145 prostate

>  <Answer Label>
inactive

$$$$
>  <Compound>
N#Cc1ccc(O)c(C2=NCC(c3ccc(-c4ccccc4)cc3)O2)c1 (centres undefined)

>  <Study Target>
DU-145 prostate

>  <Answer Label>
inactive

$$$$
>  <Compound>
CC(C)CCC[C@@H](C)[C@H]1CC[C@H]2[C@@H]3CC=C4c5sc(Nc6cc(C(F)(F)F)cc(C(F)(F)F)c6)nc5CC[C@]4(C)[C@H]3CC[C@]12C

>  <Study Target>
DU-145 prostate

>  <Answer Label>
inactive

$$$$
>  <Compound>
CCOc1ccc(/C=C/C(=O)c2cccc(OCCCOc3cccc(C(=O)/C=C/c4ccc(OCC)cc4)c3)c2)cc1

>  <Study Target>
DU-145 prostate

>  <Answer Label>
inactive

$$$$
>  <Compound>
CCCn1c(=S)sc2c(NNC(C)=O)nc(C)nc21

>  <Study Target>
DU-145 prostate

>  <Answer Label>
inactive

$$$$
>  <Compound>
COc1ccc(Oc2ccc(/C=C/C(=O)c3cc4ccccc4oc3=O)cc2)cc1

>  <Study Target>
DU-145 prostate

>  <Answer Label>
inactive

$$$$
>  <Compound>
Cc1ccc(C2CC(c3cccc(Nc4ccncc4)c3)=Nc3c(N)nc(N)nc3N2)cc1 (centres undefined)

>  <Study Target>
DU-145 prostate

>  <Answer Label>
inactive

$$$$
>  <Compound>
CCN1C2CCC1/C(=C\c1ccccc1)C(=O)/C2=C/c1ccccc1

>  <Study Target>
DU-145 prostate

>  <Answer Label>
active

$$$$
>  <Compound>
C=C1C(=O)O[C@@H]2C3C(=C(C)CC[C@@H]12)CC1O[C@]13C (some centres undefined)

>  <Study Target>
DU-145 prostate

>  <Answer Label>
inactive

$$$$
>  <Compound>
O=C(NCCCCCCNC(=O)OCc1ccc2c(Cl)cc(Cl)c(O)c2n1)OCc1ccc2c(Cl)cc(Cl)c(O)c2n1

>  <Study Target>
DU-145 prostate

>  <Answer Label>
active

$$$$
>  <Compound>
COC(=O)c1ccc2c(c1)c1c(C)c3cnccc3c(C)c1n2C

>  <Study Target>
DU-145 prostate

>  <Answer Label>
active

$$$$
>  <Compound>
O=C(c1c[nH]c2ccccc12)c1n[nH]c(=S)n1-c1ccc([N+](=O)[O-])cc1

>  <Study Target>
DU-145 prostate

>  <Answer Label>
inactive

$$$$
>  <Compound>
C#CCOc1cccc(Nc2ncnc3cc(NC(=O)CCl)ccc23)c1

>  <Study Target>
DU-145 prostate

>  <Answer Label>
active

$$$$
>  <Compound>
CCN(CC)CCCC(Cc1ccccc1)Nc1c2ccc(Cl)cc2nc2ccc(OC)cc12 (centres undefined)

>  <Study Target>
DU-145 prostate

>  <Answer Label>
inactive

$$$$
>  <Compound>
c1ccc(-c2c(-c3ccccc3)[n+](Cc3ccc4ccccc4c3)cn2Cc2ccc3ccccc3c2)cc1

>  <Study Target>
DU-145 prostate

>  <Answer Label>
active

$$$$
